Tested target: interaction between human NHE1 and human CHP1 (Homo sapiens, UniProt P19634+Q99653)
Construct: CHP1: wheat germ cell-free translation system
Sequence (P19634 whole entry): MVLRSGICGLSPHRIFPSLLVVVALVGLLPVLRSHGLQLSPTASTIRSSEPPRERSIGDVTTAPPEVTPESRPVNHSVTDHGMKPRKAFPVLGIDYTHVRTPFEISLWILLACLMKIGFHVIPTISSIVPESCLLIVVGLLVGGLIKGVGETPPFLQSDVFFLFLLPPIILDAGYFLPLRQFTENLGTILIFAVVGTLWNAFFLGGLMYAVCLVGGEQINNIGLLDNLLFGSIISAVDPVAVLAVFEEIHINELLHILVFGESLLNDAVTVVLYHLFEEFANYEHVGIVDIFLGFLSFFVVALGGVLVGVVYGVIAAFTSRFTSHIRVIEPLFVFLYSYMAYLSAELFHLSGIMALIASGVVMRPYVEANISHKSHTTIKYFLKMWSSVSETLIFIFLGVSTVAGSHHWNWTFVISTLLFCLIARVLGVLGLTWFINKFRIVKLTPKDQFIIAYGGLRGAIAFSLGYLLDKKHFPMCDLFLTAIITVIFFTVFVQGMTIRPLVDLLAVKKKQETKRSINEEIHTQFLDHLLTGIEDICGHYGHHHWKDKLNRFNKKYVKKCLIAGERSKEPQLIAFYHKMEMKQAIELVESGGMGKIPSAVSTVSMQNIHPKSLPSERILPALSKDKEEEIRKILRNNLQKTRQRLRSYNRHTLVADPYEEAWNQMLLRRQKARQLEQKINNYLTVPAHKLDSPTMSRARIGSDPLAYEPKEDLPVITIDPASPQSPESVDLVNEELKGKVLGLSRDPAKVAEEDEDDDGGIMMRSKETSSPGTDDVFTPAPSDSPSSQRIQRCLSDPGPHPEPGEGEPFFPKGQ
Sequence (Q99653 whole entry): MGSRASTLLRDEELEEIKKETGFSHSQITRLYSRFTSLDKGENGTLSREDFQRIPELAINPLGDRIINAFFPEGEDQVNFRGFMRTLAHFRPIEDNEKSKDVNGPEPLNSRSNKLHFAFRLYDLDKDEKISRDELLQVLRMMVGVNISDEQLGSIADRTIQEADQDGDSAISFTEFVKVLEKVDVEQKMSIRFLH
Assay info: CHP1-NHE1 interaction, AlphaScreen protein interaction measurement system
Recorded conditions: AlphaScreen; FLAG-tagged human NHE1 microsomal fraction and biotinylated human CHP1; 50.0 nM to 0.8 nM tested; read-out: CHP1-NHE1 interaction activity (50% inhibitory concentration)
Readout label: pIC50
Please report pIC50 as the negative decimal logarithm of the molar concentration, giving only the number.

input: Could you tell me which pIC50 is on file for CCc1ccc(C(CC)(CC)NC(=O)c2c(C)nn3c2N[C@@H](c2ccccc2)CC3(C)C)cc1 ?
output: 8.33

Cited source for all entries: patent US11033550B2
